METHOD_DESCRIPTION: Drug uptake in CSF of C57BL/6N mouse at 100 mg/kg, po after 3 hrs
Format: ADME, organism-based, Cerebrospinal fluid
Set-up: dose 100 mg/kg, route oral
MEASUREMENT_CONDITIONS: read-out: Drug uptake
PARAMETER_MEASURED: concentration at 3 h (nM)
Lab book: enter the figure in nM, no units written.

So what's the measured concentration at 3 h for this one? COc1ccc(OCC2(c3ccccc3)CC2C(=O)Nc2ccc(C#N)cn2)cc1OC (single isomer, unassigned; (-)) 94

###

EXPERIMENTAL_SYSTEM: UniProtKB O43614
Sequence (O43614 whole entry): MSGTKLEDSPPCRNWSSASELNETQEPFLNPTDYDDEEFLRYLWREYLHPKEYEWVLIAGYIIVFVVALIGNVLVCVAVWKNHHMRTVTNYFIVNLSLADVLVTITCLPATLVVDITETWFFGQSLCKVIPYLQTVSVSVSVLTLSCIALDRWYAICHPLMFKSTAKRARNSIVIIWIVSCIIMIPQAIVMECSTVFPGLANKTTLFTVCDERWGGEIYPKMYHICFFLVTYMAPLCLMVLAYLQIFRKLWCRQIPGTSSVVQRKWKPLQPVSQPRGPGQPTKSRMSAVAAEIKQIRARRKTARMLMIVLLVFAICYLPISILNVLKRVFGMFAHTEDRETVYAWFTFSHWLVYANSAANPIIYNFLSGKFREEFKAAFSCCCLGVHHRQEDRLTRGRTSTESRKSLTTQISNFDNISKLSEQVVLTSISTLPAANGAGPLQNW
PARAMETER_MEASURED: Ki (µM)
Lab book: enter the figure in µM, no units written.

COc1ccc(OCC2(c3ccccc3)CC2C(=O)Nc2ccc(C#N)cn2)cc1OC (single isomer, unassigned; (-)) ... 0.005

Shifting focus to the compound that follows.
Write down the reported Ki of `COCc1ccc(OC[C@@]2(c3ccccc3)C[C@H]2C(=O)Nc2ccccn2)cc1OC` , test system: UniProtKB O43614. 3.34
